# targetEntity: Disintegrin and metalloproteinase domain-containing protein 17 (Homo sapiens)
# Sequence (P78536 whole entry, the tested form may be a part): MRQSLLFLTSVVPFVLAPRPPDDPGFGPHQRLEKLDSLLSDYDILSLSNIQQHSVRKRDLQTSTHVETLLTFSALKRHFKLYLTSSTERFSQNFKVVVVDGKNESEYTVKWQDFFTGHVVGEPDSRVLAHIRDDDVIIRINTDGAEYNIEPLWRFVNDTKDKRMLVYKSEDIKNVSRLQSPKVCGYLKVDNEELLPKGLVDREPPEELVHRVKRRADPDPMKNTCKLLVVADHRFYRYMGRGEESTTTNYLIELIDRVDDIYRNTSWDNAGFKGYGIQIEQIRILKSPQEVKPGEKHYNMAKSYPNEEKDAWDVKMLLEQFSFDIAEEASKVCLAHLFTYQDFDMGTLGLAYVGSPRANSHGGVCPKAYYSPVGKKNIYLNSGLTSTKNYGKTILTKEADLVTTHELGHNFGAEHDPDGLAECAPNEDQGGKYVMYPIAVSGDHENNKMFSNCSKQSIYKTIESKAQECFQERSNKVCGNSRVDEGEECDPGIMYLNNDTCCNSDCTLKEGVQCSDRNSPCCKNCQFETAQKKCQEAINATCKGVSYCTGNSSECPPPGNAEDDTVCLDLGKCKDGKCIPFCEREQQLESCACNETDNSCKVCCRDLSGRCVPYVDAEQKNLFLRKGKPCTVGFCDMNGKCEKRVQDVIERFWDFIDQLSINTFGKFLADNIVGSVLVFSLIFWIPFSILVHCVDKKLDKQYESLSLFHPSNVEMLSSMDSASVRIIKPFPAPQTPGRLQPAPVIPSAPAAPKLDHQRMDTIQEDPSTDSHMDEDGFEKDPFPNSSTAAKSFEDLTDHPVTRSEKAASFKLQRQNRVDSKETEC
With a cut-off of 0.4 nM, any Ki strictly below it is called Fulfilled; any Ki meeting it or above is called Not fulfilled.

{"smilesCode": "CCN1CCN(/C(=N\\O)c2ccc(C#C[C@]3(CN4Cc5ccc(OC)cc5C4=O)NC(=O)NC3=O)cc2)CC1", "targetEntity": "Disintegrin and metalloproteinase domain-containing protein 17 (Homo sapiens)", "labelValue": "Fulfilled"}
{"smilesCode": "COc1ccc2c(c1)C(=O)N(C[C@@]1(C#Cc3ccc([C@H](C)N)cc3)NC(=O)NC1=O)C2", "targetEntity": "Disintegrin and metalloproteinase domain-containing protein 17 (Homo sapiens)", "labelValue": "Not fulfilled"}
{"smilesCode": "COc1ccc2c(c1)C(=O)N(C[C@@]1(C#Cc3cnc4[nH]cnc4c3)NC(=O)NC1=O)C2", "targetEntity": "Disintegrin and metalloproteinase domain-containing protein 17 (Homo sapiens)", "labelValue": "Not fulfilled"}
{"smilesCode": "COc1ccc2c(c1)C(=O)N(C[C@@]1(C#Cc3ccc4[nH]c(=O)[nH]c4c3)NC(=O)NC1=O)C2", "targetEntity": "Disintegrin and metalloproteinase domain-containing protein 17 (Homo sapiens)", "labelValue": "Not fulfilled"}
{"smilesCode": "COc1ccc2c(c1)C(=O)N(C[C@@]1(C#Cc3cccc(C(N)=O)c3)NC(=O)NC1=O)C2", "targetEntity": "Disintegrin and metalloproteinase domain-containing protein 17 (Homo sapiens)", "labelValue": "Not fulfilled"}
{"smilesCode": "COc1ccc2c(c1)C(=O)N(C[C@@]1(C#Cc3ccc(/C=N/O)cc3)NC(=O)NC1=O)C2", "targetEntity": "Disintegrin and metalloproteinase domain-containing protein 17 (Homo sapiens)", "labelValue": "Fulfilled"}

Now look at this one.
Does this compound meet the criterion Ki < 0.4 nM? "COc1ccc2c(c1)C(=O)N(C[C@@]1(C#Cc3cccc(F)c3)NC(=O)NC1=O)C2" Fulfilled
